# System: Jurkat
# run_description: Antiproliferative activity against human Jurkat cells assessed as […] cell proliferation at 10 uM incubated for 48 hrs by WST-1 assay relative to control
# Format: functional
value_kind: Activity (%)
Numbers only here, please. The scale is %.

Enquiry: Return the recorded Activity value; entry: `CC(C)S(=O)(=O)c1ccc(-c2cnc3[nH]nc(C(=O)NCc4ccccc4)c3c2)cc1`
Return: 90

Enquiry: Assign Activity to the following record: `CC(C)S(=O)(=O)c1ccc(-c2cc(C(=O)N3CCc4ccccc4C3)n[nH]2)cc1`
Return: 82

Enquiry: Give the value of Activity reported for the following: `CCN(CC)c1ccc(CNC(=O)c2c[nH]c3ncc(-c4ccc(S(C)(=O)=O)cc4)cc23)cc1`
Return: 76

Enquiry: Assign Activity to the following record: `CC(C)S(=O)(=O)c1ccc(-c2cnc3[nH]nc(C(=O)N4CCC(c5ccccc5)CC4)c3c2)cc1`
Return: 79

Enquiry: Using known records, supply Activity for `CC(C)S(=O)(=O)c1ccc(-c2cc(C(=O)N3CCC(c4ccccc4)CC3)n[nH]2)cc1`
Return: 84

Enquiry: State its Activity for this compound: `CC(C)S(=O)(=O)c1ccc(-c2cnc3[nH]cc(C(=O)N4CCc5ccccc5C4)c3c2)cc1`
Return: 85

Enquiry: In one line, give reported Activity of the entry `CC(C)S(=O)(=O)c1ccc(-c2cnc3[nH]cc(C(=O)N4CCC(c5ccccc5)CC4)c3c2)cc1` .
Return: 30

Enquiry: For `CC(C)S(=O)(=O)c1ccc(-c2cnc3[nH]c(C(=O)N4CCC(c5ccccc5)CC4)cc3c2)cc1` , write its Activity.
Return: 92

Enquiry: Entry `CCN(CC)c1ccc(CNC(=O)c2cc3cc(-c4ccc(S(=O)(=O)C(C)C)cc4)cnc3[nH]2)cc1` needs its Activity filled in; supply it.
Return: 95

Enquiry: Answer with the recorded Activity for the compound listed here: `CC(C)S(=O)(=O)c1ccc(-c2cc(C(=O)NCc3ccccc3)n[nH]2)cc1`
Return: 98

Enquiry: Read the entry `CCN1CCN(C(=O)c2c[nH]c3ncc(-c4ccc(S(=O)(=O)C(C)C)cc4)cc23)CC1` and write its reported Activity.
Return: 100

Enquiry: Please look at this compound and report its Activity: `CC(C)S(=O)(=O)c1ccc(-c2cnc3[nH]cc(CN4CCC(c5ccccc5)CC4)c3c2)cc1`
Return: 77

Enquiry: Note Activity for the compound shown: `CCN1CCN(C2CCN(C(=O)c3cc4cc(-c5ccc(S(C)(=O)=O)cc5)cnc4[nH]3)CC2)CC1`
Return: 96

Enquiry: Determine from records and report Activity for `CC(C)S(=O)(=O)c1ccc(-c2cnc3[nH]cc(CN4CCc5ccccc5C4)c3c2)cc1`
Return: 101

Enquiry: Output Activity of `CS(=O)(=O)c1ccc(-c2cnc3[nH]c(C(=O)NCc4ccccc4)cc3c2)cc1`
Return: 100

Enquiry: Find the measured Activity of `CCN1CCN(Cc2c[nH]c3ncc(-c4ccc(S(=O)(=O)C(C)C)cc4)cc23)CC1` and report it.
Return: 97

Enquiry: Supply Activity value. Item: `CCN1CCN(C(=O)c2c[nH]c3ncc(-c4ccc(S(C)(=O)=O)cc4)cc23)CC1`
Return: 95

Enquiry: Quickly give me recorded Activity for `CC(C)S(=O)(=O)c1ccc(-c2cnc3[nH]cc(C(=O)Nc4ccc(N(C)C)cc4)c3c2)cc1`
Return: 96
